Study system: Human immunodeficiency virus type 1 protease (Human immunodeficiency virus 1)
# pIC50 values compiled below
Please note pIC50 is a logarithmic value: minus log10 of concentration in mol/L. Answer with that number alone.

COc1cccc(C(=O)N[C@@H](Cc2ccccc2)[C@H](O)C(=O)N2C[C@@H](Cl)C[C@H]2C(=O)NC(C)(C)C)c1O 6.00
Cc1cc(O)c(C)c(C(=O)N[C@@H](Cc2ccccc2)[C@H](O)C(=O)N2C[C@@H](Cl)C[C@H]2C(=O)NC(C)(C)C)c1 8.89
Cc1cccc(C[C@H](NC(=O)c2ccc(C)c(O)c2C)[C@H](O)C(=O)N2C[C@@H](Cl)C[C@H]2C(=O)NC(C)(C)C)c1 8.60
CC(C)(C)NC(=O)[C@@H]1C[C@H](Cl)CN1C(=O)[C@@H](O)[C@H](Cc1ccccc1)NC(=O)c1cccc(O)c1 8.05
CC(C)(C)NC(=O)[C@@H]1C[C@H](Cl)CN1C(=O)[C@@H](O)[C@H](Cc1ccccc1)NC(=O)c1ccccc1O 6.00
Cc1c(O)cccc1C(=O)N[C@@H](Cc1ccccc1)[C@H](O)C(=O)N1C[C@@H](Cl)C[C@H]1C(=O)NC(C)(C)C 9.10

Data request: Human immunodeficiency virus type 1 protease (Human immunodeficiency virus 1) / pIC50 / "Cc1ccc(C[C@H](NC(=O)c2c(C)ccc(O)c2C)[C@H](O)C(=O)N2C[C@@H](Cl)C[C@H]2C(=O)NC(C)(C)C)cc1" : value?
Data returned: 8.44

---

Measured IC50 (Human immunodeficiency virus type 1 protease (Human immunodeficiency virus 1))
Field format: number, assumed nM, no unit text.

CC(C)(C)NC(=O)[C@@H]1C[C@H](Cl)CN1C(=O)[C@@H](O)[C@H](Cc1ccccc1)NC(=O)c1ccc(O)cc1 33

Data request: Human immunodeficiency virus type 1 protease (Human immunodeficiency virus 1) / IC50 / "Cc1cccc(C[C@H](NC(=O)c2cc(C)cc(O)c2C)[C@H](O)C(=O)N2C[C@@H](Cl)C[C@H]2C(=O)NC(C)(C)C)c1" : value?
Data returned: 1.3

Data request: Human immunodeficiency virus type 1 protease (Human immunodeficiency virus 1) / IC50 / "Cc1ccc(C[C@H](NC(=O)c2ccc(C)c(O)c2C)[C@H](O)C(=O)N2C[C@@H](Cl)C[C@H]2C(=O)NC(C)(C)C)cc1" : value?
Data returned: 8.6

Data request: Human immunodeficiency virus type 1 protease (Human immunodeficiency virus 1) / IC50 / "Cc1c(N)cccc1C(=O)N[C@@H](Cc1ccccc1)[C@H](O)C(=O)N1C[C@@H](Cl)C[C@H]1C(=O)NC(C)(C)C" : value?
Data returned: 5.4
